assay: Volume of steady state distribution in cynomolgus monkey at 1 mg/kg, iv; format: ADME, organism-based, Macaca fascicularis; conditions: in vivo, read-out: Vdss
recorded metric: Vd (L/kg)
Kindly answer with a numeric value in L/kg, unit omitted.

Req: Consider the molecule shown here: CC[C@@H](NC(=O)c1ccc(OC)nc1)[C@H]1CC[C@@H](c2ccnc(OC)c2C(F)F)CC1 What is its recorded Vd?
Resp: 4.5

----------
test system: UDP-glucuronosyltransferases (UGT); assay: Metabolic stability assessed as dog UGT-mediated metabolism by measuring half life; format: ADME, Canis lupus familiaris
recorded metric: half-life

Req: What half-life value was documented for this molecule, CC[C@@H](NC(=O)c1ccc(OC)nc1)[C@H]1CC[C@@H](c2ccnc(OC)c2C(F)F)CC1 ?
Resp: > 2 h

----------
assay: Clearance in mouse at 1 mg/kg, iv; assay type: ADME, organism-based; conditions: in vivo
recorded metric: clearance (L/h/kg)
Please state the figure in L/h/kg; there is no need to write the unit.

Req: Tell me the measured clearance of CC[C@@H](NC(=O)c1ccc(OC)nc1)[C@H]1CC[C@@H](c2ccnc(OC)c2C(F)F)CC1 , please.
Resp: 1.98

----------
experiment: Half life in rat at 0.5 mg/kg, iv; type: ADME, organism-based; details: in vivo
recorded metric: half-life
State the result as a value with its unit after it.

Req: What does the data say about its half-life? Entry: CC[C@@H](NC(=O)c1ccc(OC)nc1)[C@H]1CC[C@@H](c2ccnc(OC)c2C(F)F)CC1
Resp: 7.1 h

----------
Answer each item with its documented remaining at 10 min, 0.5 µM.
assay: Metabolic stability in human liver microsomes assessed as parent compound remaining at 0.5 uM after 10 mins incubation by LC-MS/MS analysis relative to control; format: ADME, Microsome; settings: read-out: Activity
Output spec: scalar in %, unitless text.

Req: Which remaining at 10 min, 0.5 µM is reported for this compound? CC[C@@H](NC(=O)c1ccc(Cl)cc1)[C@H]1CC[C@H](c2cccc(C(F)(F)F)n2)CC1
Resp: 89

Req: Item: Cc1c(F)nccc1[C@H]1CC[C@@H]([C@@H](C)NC(=O)c2ccc(Cl)cc2)CC1
Resp: 0

Req: Field entry: Cc1nccc([C@H]2CC[C@@H]([C@@H](C)NC(=O)c3ccc(Cl)cc3)CC2)c1C
Resp: 30

Req: Ok, now CC[C@@H](NC(=O)c1ccc(Cl)cc1)[C@H]1CC[C@H](c2nccc(OC)n2)CC1
Resp: 20

Req: # iterate: CC[C@@H](NC(=O)c1ccc(Cl)cc1)[C@H]1CC[C@@H](c2ccnc(OC)c2F)CC1
Resp: 68

Req: Cc1cc([C@H]2CC[C@@H]([C@@H](C)NC(=O)c3ccc(Cl)cc3)CC2)ccn1 , same question.
Resp: 1

Req: Then what about the compound CC[C@@H](NC(=O)c1ccc(Cl)cc1)[C@H]1CC[C@@H](c2ccnc(OC)c2C(F)F)CC1 ?
Resp: 85

Req: Can you handle CC[C@@H](NC(=O)c1ccc(OC)nc1)[C@H]1CC[C@@H](c2ccnc(OC)c2C(F)F)CC1 next?
Resp: 87

Req: Follow-up item: CC[C@@H](NC(=O)c1ccc(Cl)cc1)[C@H]1CC[C@@H](c2cccc3c2OC(F)(F)O3)CC1
Resp: 0

Req: Similarly, CC[C@@H](NC(=O)c1ccc(Cl)cc1)[C@H]1CC[C@H](c2cncc(OC)c2)CC1 ?
Resp: 80

Req: How about this compound: CC[C@@H](NC(=O)c1ccc(Cl)cc1)[C@H]1CC[C@H](c2cccc(=O)n2C)CC1
Resp: 88

Req: What about this compound? COC[C@@H](NC(=O)c1ccc(Cl)cc1)[C@H]1CC[C@@H](c2ccnc(OC)c2C(F)F)CC1
Resp: 68

Req: One more compound: CC[C@@H](NC(=O)c1ccc(Cl)cc1)[C@H]1CC[C@@H](c2ccnc(OC)c2C)CC1
Resp: 71

Req: Can you handle Cc1cnccc1[C@H]1CC[C@@H]([C@@H](C)NC(=O)c2ccc(Cl)cc2)CC1 next?
Resp: 16

Req: Moving on to CC[C@@H](NC(=O)c1ccc(Cl)cc1)[C@H]1CC[C@H](c2ccc(OC(F)F)cc2)CC1
Resp: 94

Req: Another compound: CC[C@@H](NC(=O)c1ccc(Cl)cc1)[C@H]1CC[C@H](c2cccc(C)n2)CC1
Resp: 56

Req: Then this compound: CC[C@@H](NC(=O)c1ccc(Cl)cc1)[C@H]1CC[C@@H](c2cccnc2OC)CC1
Resp: 3

Data origin: ChEMBL document CHEMBL4823289
